Molecular target: PARP-1 (poly[ADP-ribose] polymerase 1) enzyme (Homo sapiens (Human))
Sequence (P09874 whole entry): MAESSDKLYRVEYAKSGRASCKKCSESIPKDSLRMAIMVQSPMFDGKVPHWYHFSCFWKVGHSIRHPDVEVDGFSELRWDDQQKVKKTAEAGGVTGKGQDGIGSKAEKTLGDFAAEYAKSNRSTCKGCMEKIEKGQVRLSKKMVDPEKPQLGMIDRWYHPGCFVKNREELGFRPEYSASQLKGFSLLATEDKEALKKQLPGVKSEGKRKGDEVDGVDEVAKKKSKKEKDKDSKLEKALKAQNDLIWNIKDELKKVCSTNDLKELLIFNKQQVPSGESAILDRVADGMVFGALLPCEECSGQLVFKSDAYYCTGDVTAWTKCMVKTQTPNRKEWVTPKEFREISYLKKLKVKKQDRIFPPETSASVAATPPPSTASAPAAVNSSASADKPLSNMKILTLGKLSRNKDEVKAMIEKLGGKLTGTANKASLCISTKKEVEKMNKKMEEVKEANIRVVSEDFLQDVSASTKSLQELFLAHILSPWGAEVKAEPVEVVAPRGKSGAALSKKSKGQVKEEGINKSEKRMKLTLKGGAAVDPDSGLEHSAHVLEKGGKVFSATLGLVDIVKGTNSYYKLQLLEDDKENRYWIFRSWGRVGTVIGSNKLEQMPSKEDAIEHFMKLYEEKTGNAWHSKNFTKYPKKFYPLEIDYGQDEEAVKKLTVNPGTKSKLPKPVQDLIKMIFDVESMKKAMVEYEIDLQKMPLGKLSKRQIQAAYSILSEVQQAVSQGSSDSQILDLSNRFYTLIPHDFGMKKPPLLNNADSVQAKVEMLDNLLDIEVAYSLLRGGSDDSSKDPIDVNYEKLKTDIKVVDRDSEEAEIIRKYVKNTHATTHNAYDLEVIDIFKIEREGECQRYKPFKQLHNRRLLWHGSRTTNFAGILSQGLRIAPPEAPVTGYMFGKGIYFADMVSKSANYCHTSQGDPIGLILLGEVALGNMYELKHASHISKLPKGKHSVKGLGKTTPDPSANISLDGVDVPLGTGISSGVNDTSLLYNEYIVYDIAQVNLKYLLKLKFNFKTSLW
Assay: PARP-1 (poly[ADP-ribose] polymerase 1) enzyme inhibitory ability, Trevigen assay kit
Type: biochemical
Details: PARP-1 enzyme activity
property: pIC50
Convention used: pIC50 is expressed as -log10 of the molar concentration.

Record Cc1ccc(F)c2c(=O)[nH]c(CCC(=O)N3CCN(c4ccc(C#N)cc4F)CC3)cc12 . Reported pIC50: 8.86

Record N#Cc1ccc(C2=CCN(CCCc3cc4ccc(F)cc4c(=O)[nH]3)CC2)nc1 . Reported pIC50: 8.73

====

Target: UniProt:P09874
Experiment: PARP-1 (poly[ADP-ribose] polymerase 1) enzyme inhibitory ability, Trevigen assay kit
Assay type: biochemical
Conditions: 1 nM compound; read-out: PAR P-1 Inhibitory ability at 1 nM
Counter-ions that a name gives are not always drawn.
property: inhibition at 0.001 µM

Sample records with inhibition at 0.001 µM:
The reported inhibition at 0.001 µM value, UniProt:P09874, for Cc1ccc(F)c2c(=O)[nH]c(CCC(=O)N3CCN(C(=O)[C@H](C)N)CC3)cc12 [Example 194, hydrochloride] reads < 50%

The reported inhibition at 0.001 µM value, UniProt:P09874, for O=c1[nH]c(CCCN2CCN(c3cccc(Cl)c3)CC2)cc2ccc(F)cc12 reads < 50%

The reported inhibition at 0.001 µM value, UniProt:P09874, for N#Cc1ccc(N2CC3CCC(C2)N3CCCc2cc3ncccc3c(=O)[nH]2)cn1 reads < 50%

The reported inhibition at 0.001 µM value, UniProt:P09874, for N#Cc1ccc(NC2CCN(CCCc3cc4cccc(F)c4c(=O)[nH]3)CC2)cc1 reads 50 to 80%

The reported inhibition at 0.001 µM value, UniProt:P09874, for Cc1cc(F)cc2c(=O)[nH]c(CCC(=O)N3CCN(c4ccc(C#N)cc4F)CC3)cc12 reads < 50%

***
The reported inhibition at 0.001 µM value, UniProt:P09874, for N#Cc1ccc(C2=CCN(C(=O)CCc3cc4cccc(F)c4c(=O)[nH]3)CC2)cn1 reads < 50%

The reported inhibition at 0.001 µM value, UniProt:P09874, for Cc1ccc(F)c2c(=O)[nH]c(CCCN3CC=C(c4ccc(C#N)c(F)c4)CC3)cc12 reads 50 to 80%
